The reported numbers originate from ChEMBL document CHEMBL3232782.

Experiment: Selectivity index, ratio of IC50 for mouse J774A1 cells to MIC for Mycobacterium tuberculosis H37Rv expressing luciferase
Format: toxicity, cell-based, J774.A1
Details: read-out: Selectivity Index
measured-quantity: selectivity ratio
Provide a numeric answer; units are not to be included.

[in] Consider the molecule CC(C)(C)C1CCc2ncc3c(c2C1)C(=O)C1=C(C3=O)C2CCC1O2 (configuration not stated) . State its measured selectivity ratio.
[out] 7.38

[in] Tell me measured selectivity ratio for CCOC(=O)C1CCc2ncc3c(c2C1)C(=O)C1=C(C3=O)C2CCC1C2 (configuration not stated) please.
[out] 38.6

[in] Please indicate selectivity ratio recorded for Cc1nc2c(c3c1C(=O)c1ccccc1C3=O)CCCC2C (configuration not stated)
[out] 1.74

[in] Using the record for CC1CCc2c(ncc3c2C(=O)c2ccccc2C3=O)C1 (configuration not stated) , state its measured selectivity ratio.
[out] 1.53

[in] Find the measured selectivity ratio of Cc1ccc2c3c(cnc2c1)C(=O)c1ccccc1C3=O and report it.
[out] 15

[in] Let me know recorded selectivity ratio for CC1CCc2ncc3c(c2C1)C(=O)c1ccccc1C3=O (configuration not stated) , thanks.
[out] 0.14

[in] Return the recorded selectivity ratio value; entry: O=C1c2ccccc2C(=O)c2c1cnc1c2CCCC1
[out] 0.74

[in] Specify reported selectivity ratio for the molecule shown: CC(C)(C)C1CCc2ncc3c(c2C1)C(=O)C1=C(C3=O)C2CCC1C2 (configuration not stated)
[out] 87

[in] Consider the molecule Cc1nc2c(c3c1C(=O)c1ccccc1C3=O)CCC(C)C2 (configuration not stated) and give its recorded selectivity ratio.
[out] 2.61

[in] // Input: CC1CCCc2c1ncc1c2C(=O)c2ccccc2C1=O (configuration not stated) . Output its selectivity ratio only.
[out] 1.03

[in] # return recorded selectivity ratio for input CC(C)(C)C1CCc2ncc3c(c2C1)C(=O)c1ccccc1C3=O (configuration not stated)
[out] 1.19

[in] Consider the molecule CC(C)(C)C1CCc2ncc3c(c2C1)C(=O)C1=C(C3=O)C2CCC1CC2 (configuration not stated) . State its measured selectivity ratio.
[out] 2.68
